# study-target: T1, IL-11 protein (UniProt P20809 22-199, limits assumed)
# T1 construct: also called IL-11 antigen
# T1 sequence (looked up): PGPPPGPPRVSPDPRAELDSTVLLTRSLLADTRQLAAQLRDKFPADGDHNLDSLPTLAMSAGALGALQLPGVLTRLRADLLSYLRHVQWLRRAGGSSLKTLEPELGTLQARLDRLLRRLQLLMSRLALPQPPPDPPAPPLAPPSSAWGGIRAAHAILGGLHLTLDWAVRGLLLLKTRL
# experiment-notes: SPR (Biacore), antibody captured, 400 nM IL-11 as analyte
readout-name: koff (s⁻¹)

>>> measured_result("VH2 + VL4-scFv (scFv, V domains shown, Humanized 5-20E11-5F2; CHO supernatant; Called scFv, but heavy and light vectors were co-transfected) VH: QVQLVQSGAEVKKPGASVKVSCKASDYTFTNYWLGWVRQAPGQGLEWIGHIYPGGGYTNYNEKFKGRVTMTADTSTSTVYMELSSLRSEDTAVYFCARVRSGNDALDFWGQGTLVTVSS VL: EIVLTQSPATLSLSPGERATLSCRASESVDEYGISFMNWFQQKPGQAPRLLIYSASNQGSGIPARFSGSGSGTDFTLTISSLEPEDFAMYFCQQSKEVPWTFGGGTKLEIK")
0.000528
>>> measured_result("VH1 + VL3-scFv (scFv, V domains shown, Humanized 5-20E11-5F2; CHO supernatant; Called scFv, but heavy and light vectors were co-transfected) VH: QVQLVQSGAEVKKPGASVKVSCKASDYTFTNYWLGWVRQAPGQGLEWMGHIYPGGGYTNYNEKFKGRVTMTRDTSTSTVYMELSSLRSEDTAVYYCARVRSGNDALDFWGQGTLVTVSS VL: EIVLTQSPATLSLSPGERATLSCRASESVDEYGISFMNWFQQKPGQAPRLLIYSASNQGSGIPARFSGSGSGTDFTLTISSLEPEDFAVYFCQQSKEVPWTFGGGTKLEIK")
0.000436
>>> measured_result("VH4 + VL1-scFv (scFv, V domains shown, Humanized 5-20E11-5F2; CHO supernatant; Called scFv, but heavy and light vectors were co-transfected) VH: QVQLVQSGAEVKKPGASVKVSCKASDYTFTNYWLGWVRQAPGHGLEWIGHIYPGGGYTNYNEKFKGRATLTADTSTSTVYMELSSLRSEDTAVYFCARVRSGNDALDFWGQGTLVTVSS VL: EIVLTQSPATLSLSPGERATLSCRASESVDEYGISFMNWYQQKPGQAPRLLIYSASNQGSGIPARFSGSGSGTDFTLTISSLEPEDFAVYYCQQSKEVPWTFGGGTKLEIK")
0.00084
